# credit: PubChem BioAssay (NCI)

Quick reference: growth of the listed items.
# Tested on: HOP-62 NSCLC
# Procedure summary: NCI-60 one-dose screen, 48 h (100 = growth as untreated, 0 = no growth, -100 = all killed)
# Measurement context: 10 µM
This is part of a sample that, as a whole, favours compounds with a hit. Of some 83,000 tested, about 20% had one in any assay.
Your answer is read as %, so omit the unit and give the number.

Check out these entries, answers already filled in.
>>> print(df.to_string())
                           compound  observed_value
0     O=[N+]([O-])c1cc[n+]([O-])cc1             131
1             Cc1ccc(Sc2ccccc2N)cc1             100
2  COc1ccc(C(=O)C(CN(C)C)CN(C)C)cc1            97.9

Summary for this compound, C=C1C(=O)OC2CC1C(OC(C)=O)C/C(C)=C/CC/C(C)=C\CCC2(C)O (stereo unspecified) : growth is 106

Summary for this compound, "Cc1cc(N(CCOS(C)(=O)=O)CCOS(C)(=O)=O)ccc1C=Nc1ccc(-c2nc(Cc3ccccc3)sc2C)cc1" : growth is 36

Summary for this compound, C#CCN(Cc1ccc2nc(N)[nH]c(=O)c2c1)c1ccc(C(=O)NC(CCC(=O)O)C(=O)O)cc1 (stereo unspecified) : growth is 82.3

----------
# System: K-562 leukemia
# Procedure summary: NCI-60 one-dose screen, 48 h (100 = growth as untreated, 0 = no growth, -100 = all killed)
# Measurement context: 10 µM
This is part of a sample that, as a whole, favours compounds with a hit. Of some 83,000 tested, about 20% had one in any assay.
Result type: growth (%)
Your answer is read as %, so omit the unit and give the number.

In [3]: df
Out[3]:
                                   compound  result_type  unit_of_measurement  observed_value
0  C#CCN(Cc1ccc2nc(N)[nH]c(=O)c2c1)c1ccc(C(=O)NC(CCC(=O)O)C(=O)O)cc1 (stereo not given)       growth                    %            58.9

Summary for this compound, "Cc1cc(N(CCOS(C)(=O)=O)CCOS(C)(=O)=O)ccc1C=Nc1ccc(-c2nc(Cc3ccccc3)sc2C)cc1" : growth is 21.7

Summary for this compound, "Cc1ccc(Sc2ccccc2N)cc1" : growth is 108

Summary for this compound, "O=[N+]([O-])c1cc[n+]([O-])cc1" : growth is 117

Summary for this compound, C=C1C(=O)OC2CC1C(OC(C)=O)C/C(C)=C/CC/C(C)=C\CCC2(C)O (stereo not given) : growth is -40

----------
# Tested on: SW-620 colon
# Procedure summary: NCI-60 one-dose screen, 48 h
# Measurement context: 10 µM
# Experimental: Growth inhibition of the SW-620 human tumor cell line is measured as a screen for anti-cancer activity. Cells are grown in 96 well plates and exposed to the test compound for 48 hours. Compounds are tested at a single concentration, which is 10^-5 M for most compounds. The reported endpoint is percent growth (GI% or GIPRCNT), where numbers from 0 - 100% represent growth inhibition, and numbers from -100% - 0 represent cell death. For example, a value of 40 represents 60% growth inhibition. […]
This is part of a sample that, as a whole, favours compounds with a hit. Of some 83,000 tested, about 20% had one in any assay. Calls of active or inactive are those of the source. The calls were made as follows: active = growth percent below 10; inactive = the rest.
The categories you may choose from are active, inactive

Below, 5 molecules whose answers are already recorded.
>>> print(df.to_string())
                                   molecule     label
0  Cc1cc(N(CCOS(C)(=O)=O)CCOS(C)(=O)=O)ccc1C=Nc1ccc(-c2nc(Cc3ccccc3)sc2C)cc1  inactive
1          COc1ccc(C(=O)C(CN(C)C)CN(C)C)cc1    active
2                     Cc1ccc(Sc2ccccc2N)cc1  inactive
3  C=C1C(=O)OC2CC1C(OC(C)=O)C/C(C)=C/CC/C(C)=C\CCC2(C)O (stereo unspecified)    active
4  C#CCN(Cc1ccc2nc(N)[nH]c(=O)c2c1)c1ccc(C(=O)NC(CCC(=O)O)C(=O)O)cc1 (stereo unspecified)  inactive

Kindly review the next molecule as well.
Asked: Give the logged outcome of this assay for the following molecule: "O=[N+]([O-])c1cc[n+]([O-])cc1"
Given back: inactive
